# credit: patent US11377442B2

Quick reference: Firefly, F4, 1% FBS, cmpd/DMSO (mean) of the listed items.
Biological target: NR2F6 (Homo sapiens)
Construct: expressed in transfected cells; also transient transfection
Sequence (P10588 1-404): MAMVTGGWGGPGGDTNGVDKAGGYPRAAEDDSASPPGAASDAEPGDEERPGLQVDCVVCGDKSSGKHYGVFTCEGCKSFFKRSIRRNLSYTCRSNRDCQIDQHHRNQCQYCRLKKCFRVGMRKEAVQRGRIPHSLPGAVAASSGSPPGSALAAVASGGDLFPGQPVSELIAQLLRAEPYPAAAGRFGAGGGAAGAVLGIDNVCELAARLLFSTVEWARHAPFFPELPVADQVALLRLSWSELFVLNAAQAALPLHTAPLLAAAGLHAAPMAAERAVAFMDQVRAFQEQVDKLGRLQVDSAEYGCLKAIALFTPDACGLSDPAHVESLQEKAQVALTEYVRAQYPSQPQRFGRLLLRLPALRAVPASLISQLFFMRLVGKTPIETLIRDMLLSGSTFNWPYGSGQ
Test: NR2F6 agonist screening, Firefly signal cmpd/DMSO
Assay type: cell-based
Settings: F4; 1% FBS; 0.5 uM
Lab note: jot down the number only; don't add units.

Lookup: Please report the measured Firefly, F4, 1% FBS, cmpd/DMSO (mean) for "CC(C)OCCCN[C@H]1CS(=O)(=O)C[C@@H]1S(=O)(=O)c1ccc(Cl)cc1"
Found: 0.8

Lookup: Please report the measured Firefly, F4, 1% FBS, cmpd/DMSO (mean) for "CC1CCN([C@H]2CS(=O)(=O)C[C@@H]2S(=O)(=O)c2cccs2)CC1"
Found: 0.9

Lookup: Please report the measured Firefly, F4, 1% FBS, cmpd/DMSO (mean) for "O=S1(=O)C[C@H](NC2CCCCCC2)[C@@H](S(=O)(=O)c2ccc(Cl)cc2)C1"
Found: 0.7

Lookup: Please report the measured Firefly, F4, 1% FBS, cmpd/DMSO (mean) for "COCCN[C@H]1CS(=O)(=O)C[C@@H]1S(=O)(=O)c1ccc(Cl)cc1"
Found: 0.8

Lookup: Please report the measured Firefly, F4, 1% FBS, cmpd/DMSO (mean) for "CCCCN(C)[C@H]1CS(=O)(=O)C[C@@H]1S(=O)(=O)c1ccc(Cl)cc1"
Found: 0.7
